Every entry's value here was drawn from paper PMC7826789.

What Percent Control was measured for each of the following?
- Test system: PFTK1
- Construct: gene CDK14
- recordedConditions: Compound Concentration (nM):1000;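 note: KINOMEscan scanMAX binding as percent activity remaining versus control; lower means stronger binding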
Give bare numbers, in %.

Example entries and their recorded answers appear below.
compound | systemTested | dataValue
COc1cc2ncn(-c3cc(O[C@H](C)c4ccccc4Cl)c(C(N)=O)s3)c2cc1OC [GSK237701A] | PFTK1 | 100
NS(=O)(=O)c1ccc(N/N=C2\C(=O)Nc3ccc(-c4cnco4)cc32)cc1 | PFTK1 | 94
COc1cc(/C=N/Nc2ncnc3[nH]ncc23)ccc1O [GW578748X] | PFTK1 | 100
Cl.c1ccc(Cc2nc3ccc(Nc4ncnc5ccccc45)cc3[nH]2)cc1 [GR269666A] | PFTK1 | 100
NS(=O)(=O)c1ccc(N/N=C2\C(=O)Nc3ccc(C(=O)NCc4ccncc4)cc32)cc1 [GW300657X] | PFTK1 | 73
CCc1ccc(Oc2nccc(-c3c(-c4ccc(F)cc4)ncn3C3CCNCC3)n2)cc1 | PFTK1 | 86
NS(=O)(=O)c1ccc(N/N=C2\C(=O)Nc3ccc(C(=O)NCCc4c[nH]cn4)cc32)cc1 [GW300660X] | PFTK1 | 100
COc1ccc2c(-c3ccnc(Nc4cccc(OC(F)(F)F)c4)n3)cnn2n1 [GW810372X] | PFTK1 | 100

Hey, quick one: what's Percent Control for each of these?
1. COc1cc(N2CCN(C(C)C)CC2)ccc1Nc1nc(Nc2ccc(F)cc2C(=O)NC[C@@H](O)CO)c2cc[nH]c2n1 [GSK1392956A]
2. C/C(Nc1ccc(S(N)(=O)=O)cc1)=C1/C(=O)Nc2ccccc21 [GW335962X]
3. CC1=C(C(=O)Nc2ccc3[nH]ncc3c2)C(c2ccc(Cl)c(Cl)c2)CC(=O)N1 (centres unmarked) [GSK299115A]
4. COc1cc2ncnc(Nc3ccc4c(cnn4Cc4ccccc4)c3)c2cc1OC.Cl [GW282449A]
5. Cl.O=C(Nc1ccc(Oc2ccc3[nH]c(NC(=O)c4ccco4)nc3c2)cc1)Nc1cc(C(F)(F)F)ccc1F [GW683134A]
6. COc1cccc(-n2ncc3c(N/N=C/c4ccncc4)ncnc32)c1 [GW784752X]
7. COc1ccc2cc(-c3c(-c4ccncc4)nc(-c4ccc(S(C)(=O)=O)cc4C)n3C)ccc2c1

Ans.
1. 100
2. 72
3. 49
4. 100
5. 100
6. 95
7. 80

For the 2 compounds below, give their Percent Control values.
1. Cl.O=S1CCN(Cc2ccc(-c3ccc4ncnc(Nc5ccc(OCc6ccccc6)c(F)c5)c4c3)o2)CC1 [GW576924A]
2. COc1ccc(COc2ccc(Cc3cnc(N)nc3N)cc2OC)cc1 [GW632580X]

Ans.
1: 100; 2: 74

====

- Test system: FLT3(ITD,D835V)
- recordedConditions: Compound Concentration (nM):1000
observationType: Percent Control (%)
Numbers only, in %.

Known results for compounds:
compound | dataValue
COc1cc(N2CCN(C(C)C)CC2)ccc1Nc1nc(Nc2ccc(F)cc2C(=O)NC[C@@H](O)CO)c2cc[nH]c2n1 [GSK1392956A] | 79
Cc1cc(O)cc(C)c1/C=C/c1cncc(C(N)=O)c1 [GW435821X] | 100
COc1cc(C)c(N(C)C(=O)CN(C)C)cc1Nc1nc(Nc2cccc(F)c2C(N)=O)c2cc[nH]c2n1 [GSK2219385] | 88
COc1cc2ncnc(Nc3ccc4c(cnn4Cc4ccccc4)c3)c2cc1OC.Cl [GW282449A] | 90
C[C@@H](Oc1cc(-n2cnc3ccc(OC4CCN(C)CC4)cc32)sc1C(N)=O)c1ccccc1Cl [GSK579289A] | 15
CCS(=O)(=O)c1ccc(OC)c(Nc2ncc(-c3cccc(F)c3)o2)c1 [GW621970X] | 0
O=C1Nc2ccc(C(=O)c3ccco3)cc2C1=Cc1cc(Cl)c(O)c(Cl)c1 [GW406108X] | 12

In the following, a different compound is considered.
Qu. I am curious: what Percent Control value has been reported for Cl.c1ccc(Cc2nc3ccc(Nc4ncnc5ccccc45)cc3[nH]2)cc1 [GR269666A] ?
Ans. 100

====

- System: ABL1(F317I)-nonphosphorylated
- recordedConditions: Compound Concentration (nM):1000
So I've got a bunch of compounds here, and I need their Percent Control values.
Answers are plain numbers, in %.

The following compounds have reported results that may help.
compound | Percent Control / %
CCn1c(-c2nonc2N)nc2c(C#CC(C)(C)O)nc(OCCNC)cc21.Cl [GSK949675] | 100
CN(C)c1cc2c(Nc3ccc4c(cnn4Cc4ccccc4)c3)ncnc2cn1 [GW282974X] | 84
COc1cc2ncnc(Nc3ccc4c(cnn4Cc4ccccc4)c3)c2cc1OC.Cl [GW282449A] | 100
Nc1ncnc2occ(-c3ccc(NC(=O)Nc4cc(C(F)(F)F)ccc4F)cc3)c12 [GW770249X] | 67

Field: next compound
Qu. Which Percent Control value is on record for NS(=O)(=O)c1ccc(N/N=C2\C(=O)Nc3ccc(-c4cnco4)cc32)cc1 [GW276655] ?
Ans. 69

====

- Test system: BRSK2
- recordedConditions: Compound Concentration (nM):1000
Please respond with reported Percent Control for every item in the list.

Completed entries (count: 4):
molecule | Percent Control
COc1ccc2cc(-c3c(-c4ccncc4)nc(-c4ccc(S(C)(=O)=O)cc4C)n3C)ccc2c1 | 73%
COc1ccc(COc2ccc(Cc3cnc(N)nc3N)cc2OC)cc1 [GW632580X] | 55%
O=C(Nc1n[nH]c2nc(-c3ccc(O)cc3)c(Br)cc12)C1CC1 | 47%
COc1cc2ncnc(Nc3ccc4c(cnn4Cc4ccccc4)c3)c2cc1OC.Cl [GW282449A] | 100%

For each listed entry, give its Percent Control.
1. COc1cccc(-n2ncc3c(N/N=C/c4ccncc4)ncnc32)c1 [GW784752X]
2. Cl.O=C(Nc1ccc(Oc2ccc3[nH]c(NC(=O)c4ccco4)nc3c2)cc1)Nc1cc(C(F)(F)F)ccc1F [GW683134A]
3. CC1=C(C(=O)Nc2ccc3[nH]ncc3c2)C(c2ccc(Cl)c(Cl)c2)CC(=O)N1 (stereo not drawn) [GSK299115A]

Ans.
["61%", "98%", "98%"]

====

- Tested on: CSNK1G3
- recordedConditions: Compound Concentration (nM):1000
For each record, write down the corresponding Percent Control.
Answers are plain numbers, in %.

molecule | unitOfMeasurement | dataValue
CCS(=O)(=O)c1ccc(OC)c(Nc2ncc(-c3cccc(F)c3)o2)c1 [GW621970X] | % | 100

Hello, I would appreciate it if you could give Percent Control for each entry below.
1. Nc1ncnc2occ(-c3ccc(NC(=O)Nc4cc(C(F)(F)F)ccc4F)cc3)c12 [GW770249X]
2. Cl.O=C(O[C@H]1CN[C@H](C#Cc2cc3ncnc(Nc4ccc5c(cnn5Cc5ccccc5)c4)c3s2)C1)N1CCOCC1 [GSK200398A]
3. Cl.O=C(Nc1ccc(Oc2ccc3[nH]c(NC(=O)c4ccccc4)nc3c2)cc1)Nc1cc(C(F)(F)F)ccc1F [GW709042A]
4. Cl.O=S1CCN(Cc2ccc(-c3ccc4ncnc(Nc5ccc(OCc6ccccc6)c(F)c5)c4c3)o2)CC1 [GW576924A]
5. COc1ccc2cc(-c3c(-c4ccncc4)nc(-c4ccc(S(C)(=O)=O)cc4C)n3C)ccc2c1
6. CCc1ccc(Oc2nccc(-c3c(-c4ccc(F)cc4)ncn3C3CCNCC3)n2)cc1
7. C[C@@H](Oc1cc(-n2cnc3ccc(OC4CCN(C)CC4)cc32)sc1C(N)=O)c1ccccc1Cl [GSK579289A]

Ans.
1: 99; 2: 92; 3: 100; 4: 100; 5: 100; 6: 53; 7: 100

====

- Test system: FLT3
- recordedConditions: Compound Concentration (nM):1000
Exercise: for every item that follows, state its recorded Percent Control.

Kindly give each listed record's Percent Control.
1. COc1cc(C=NNc2ncnc3c2cnn3-c2ccccc2)ccc1O [GW513184X]
2. COC(=O)Nc1nc2ccc(Oc3ccc(NC(=O)Nc4cc(C(F)(F)F)ccc4F)cc3)cc2s1.Cl [GW693917A]
3. Cl.O=S1CCN(Cc2ccc(-c3ccc4ncnc(Nc5ccc(OCc6ccccc6)c(F)c5)c4c3)o2)CC1 [GW576924A]
4. Cl.O=C(Nc1ccc(Oc2ccc3[nH]c(NC(=O)c4ccccc4)nc3c2)cc1)Nc1cc(C(F)(F)F)ccc1F [GW709042A]
5. COc1cccc(-c2c[nH]c3c(N/N=C/c4ccncc4)ncnc23)c1 [GW814408X]

Ans.
34%
2.4%
90%
2.4%
26%

State the recorded Percent Control for every item in the following list.
1. CN(C)c1cc2c(Nc3ccc4c(cnn4Cc4ccccc4)c3)ncnc2cn1 [GW282974X]
2. COc1ccccc1-c1cc(/C=C2\C(=O)Nc3ncc(Br)cc32)cc(Br)c1O [GW442130X]
3. Cl.O=C(O[C@H]1CN[C@H](C#Cc2cc3ncnc(Nc4ccc5c(cnn5Cc5ccccc5)c4)c3s2)C1)N1CCOCC1 [GSK200398A]
4. CC1=C(C(=O)Nc2ccc3[nH]ncc3c2)C(c2ccc3ccccc3c2)CC(=O)N1 (stereo not shown) [GSK270822A]
5. CN1CCN(C(=O)c2ccc(NC(=O)Nc3ccc(N(C)c4ccnc(Nc5ccc(CS(C)(=O)=O)cc5)n4)cc3)cc2)CC1.Cl [GW830263A]
6. COc1cc2ncn(-c3cc(O[C@H](C)c4ccccc4Cl)c(C(N)=O)s3)c2cc1OC [GSK237701A]
7. COc1ccc2[nH]c3c4[nH]c5ccc(OC)cc5c4c4c(c3c2c1)C(=O)NC4=O [GW296115X]

Ans.
1. 73%
2. 100%
3. 77%
4. 89%
5. 1.5%
6. 21%
7. 28%

Answer for every listed entry: what is its Percent Control? The entries follow.
1. COc1cccc(-n2ncc3c(N/N=C/c4ccncc4)ncnc32)c1 [GW784752X]
2. O=C(Nc1n[nH]c2nc(-c3ccc(O)cc3)c(Br)cc12)C1CC1 [SB-725317]
3. Cl.c1ccc(Cc2nc3ccc(Nc4ncnc5ccccc45)cc3[nH]2)cc1 [GR269666A]
4. Cl.O=C(Nc1ccc(Oc2ccc3[nH]c(NC(=O)c4ccco4)nc3c2)cc1)Nc1cc(C(F)(F)F)ccc1F [GW683134A]

Ans.
76%
64%
72%
1.3%
